recorded-metric: melting point

Hey, quick one: what's melting point for each of these?
1. Cc1cnc2c(c1)c(C#N)c(-c1ccc(S(=O)(=O)N[C@@H](C)C(F)(F)F)cn1)n2-c1cc(F)cc(F)c1
2. C[C@H](NS(=O)(=O)c1ccc(-c2c(C#N)c3cc(-c4cccs4)cnc3n2C2CCC2)nc1)C(F)(F)F
3. CCc1cc2c(C#N)c(-c3ccc(S(=O)(=O)N[C@@H](C)C(F)(F)F)cc3)n(C3CCC3)c2cn1
4. Cc1cc(-c2c(C#N)c3cc(C(F)(F)F)cnc3n2C2CCC2)ncc1S(=O)(=O)N[C@@H](C)C(F)(F)F
5. C[C@H](NS(=O)(=O)c1ccc(-c2c(C#N)c3ccncc3n2C2CCC2)nc1)C(F)(F)F
6. CSc1cnc2c(c1)c(C(N)=O)c(-c1ccc(NS(=O)(=O)C(C)(C)C)cc1)n2C1CCC1

Result:
260 to 262 °C
206 to 208 °C
200 to 203 °C
166 to 171 °C
199 to 201 °C
240 to 241 °C

Request: Given the compound "C[C@@H](NS(=O)(=O)c1ccc(-c2c(C#N)c3cc(Cl)cnc3n2C2CCC2)nc1)C(F)(F)F" , write its reported melting point.
Result: 202 to 203 °C

###

Please provide measured melting point for the entries that follow.

- molecule: "C[C@H](NS(=O)(=O)c1ccc(-c2c(C#N)c3cc(F)cnc3n2-c2ncc(F)cn2)nc1)C(F)(F)F"
  melting point: "180 to 182 °C"
- molecule: "C[C@H](NS(=O)(=O)c1cnc(-c2c(C#N)c3cc(C4CC4)cnc3n2C2CCC2)nc1)C(F)(F)F"
  melting point: "176 to 183 °C"
- molecule: "Cc1cnc2c(c1)c(C#N)c(-c1ccc(S(=O)(=O)N[C@@H](C)C(F)(F)F)cn1)n2-c1ccncc1"
  melting point: "243 to 245 °C"
- molecule: "Cc1cc2c(cn1)c(C#N)c(-c1ccc(S(=O)(=O)N[C@H](C)C(F)(F)F)cn1)n2C1CCC1"
  melting point: "176 to 178 °C"
- molecule: "Cc1ccnc(-n2c(-c3ccc(S(=O)(=O)N[C@@H](C)C(F)(F)F)cn3)c(C#N)c3cc(C(F)(F)F)cnc32)n1"
  melting point: "176 to 180 °C"
- molecule: "CC(C)(C)NS(=O)(=O)c1ccc(-c2c(C(N)=O)c3cc(C(F)(F)F)cnc3n2C2CCCCC2)cc1"
  melting point: "290 to 292 °C"
- molecule: "COc1cnc2c(c1)c(C#N)c(-c1ccc(S(=O)(=O)N(C(C)=O)[C@@H](C)C(F)(F)F)cn1)n2C1CCCC1"
  melting point: "169 to 173 °C"
- molecule: "Cc1cnc2c(c1)c(C#N)c(-c1ncc(S(=O)(=O)N[C@@H](C)C(F)(F)F)cc1C)n2C1CCC1"
  melting point: "181 to 185 °C"
- molecule: "Cc1cnc2c(c1)c(C#N)c(-c1ccc(S(=O)(=O)NC3(C(F)(F)F)CC3)cn1)n2C1CCC1"
  melting point: "245 to 247 °C"
- molecule: "COc1ccc2c(C#N)c(-c3ncc(S(=O)(=O)NC(CF)CF)cn3)n(C3CCC3)c2n1"
  melting point: "229 to 230 °C"

Hey, quick one: what's melting point for each of these?
1. CC(C)(NS(=O)(=O)c1ccc(-c2c(C#N)c3cc(C(F)(F)F)cnc3n2C2CCCCC2)nc1)C(F)(F)F
2. Cc1cnc2c(c1)c(C#N)c(-c1ccc(S(=O)(=O)N[C@@H](C)C(F)(F)F)cn1)n2-c1ccccc1F
3. N#Cc1c(-c2ccc(S(=O)(=O)NC(CF)CF)cc2)n(C2CCC2)c2ncccc12
4. CCC(NS(=O)(=O)c1ccc(-c2c(C#N)c3cc(Cl)cnc3n2C2CCCC2)nc1)C(F)(F)F (stereo not drawn)
5. NC(=O)c1c(-c2ccc(S(=O)(=O)NC3(C(F)(F)F)CC3)cc2)n(C2CCCC2)c2ncc(C(F)(F)F)cc12

Result:
1: 177 to 179 °C; 2: 128 °C (dec.); 3: 180 to 182 °C; 4: 170 to 174 °C; 5: 277 to 279 °C

###

Please provide measured melting point for the entries that follow.

Hey, quick one: what's melting point for each of these?
1. C[C@@H](NS(=O)(=O)c1ccc(-c2c(C#N)c3cnc(Cl)cc3n2C2CCCC2)cc1)C(F)(F)F
2. Cc1ncc2c(C#N)c(-c3ccc(S(=O)(=O)N[C@@H](C)C4CC4)cn3)n(C3CCC3)c2n1
3. CC(C)(C)NS(=O)(=O)c1ccc(-c2c(C(N)=O)c3cc(Cl)cnc3n2C2CCC2)cc1

Result:
["239 to 241 °C", "155 to 157 °C", "269 to 270 °C"]

###

recorded-metric: melting point

Hey, quick one: what's melting point for each of these?
1. C[C@@H](NS(=O)(=O)c1ccc(-c2c(C#N)c3cc(OC(F)F)cnc3n2C2CCC2)nc1)C(F)(F)F [Cpd 197]
2. C[C@@H](NS(=O)(=O)c1ccc(-c2c(C#N)c3cc(F)cnc3n2C2CCC2)nc1)C(F)(F)F [Cpd 47]
3. Cc1cnc2c(C#N)c(-c3ncc(S(=O)(=O)NC(CF)CF)cn3)n(C3CCC3)c2c1 [Cpd 213]
4. C[C@H](NS(=O)(=O)c1ccc(-c2c(C#N)c3ncc(Cl)cc3n2C2CCC2)cc1)C(F)(F)F [Cpd 235]
5. CC(C)(NS(=O)(=O)c1ccc(-c2c(C(N)=O)c3cc(C(F)(F)F)cnc3n2C2CCC2)nc1)C(F)(F)F [Cpd 399]

Result:
1. 149 to 151 °C
2. 167 to 169 °C
3. 269 to 271 °C
4. 205 to 210 °C
5. 217 to 219 °C

Hey, quick one: what's melting point for each of these?
1. CC(C)(C)NS(=O)(=O)c1ccc(-c2c(C#N)c3cc(C(F)(F)F)cnc3n2-c2ccccc2)nc1 [Cpd 516]
2. CC(C)(C)NS(=O)(=O)c1ccc(-c2c(C#N)c3cc(C(F)(F)F)cnc3n2-c2ccccn2)nc1 [Cpd 518]

Result:
1: 201.2 to 202.4 °C; 2: 210.4 to 211.8 °C

###

Please provide measured melting point for the entries that follow.

Consider the reported melting point for these compounds:
- compound: "Cc1cnc2c(C#N)c(-c3ccc(S(=O)(=O)NC(CF)CF)cn3)n(C3CCC3)c2c1 [Cpd 212]"
  observed-value: "219 to 221 °C"
- compound: "C[C@H](NS(=O)(=O)c1ccc(-c2c(C#N)c3cc(C(F)F)cnc3n2C2CCC2)cc1)C(F)(F)F [Cpd 453]"
  observed-value: "203 to 205 °C"
- compound: "Cc1cnc2c(C#N)c(-c3ccc(S(=O)(=O)NC(CF)CF)cn3)n(C3CCCC3)c2c1 [Cpd 176]"
  observed-value: "248 to 249 °C"
- compound: "COc1cnc2c(c1)c(C#N)c(-c1ccc(S(=O)(=O)N[C@@H](C)C(F)(F)F)cn1)n2C1CCCC1 [Cpd 248]"
  observed-value: "178 to 180 °C"
- compound: "Cc1ccc2c(C#N)c(-c3ccc(S(=O)(=O)NC(C)(C)C)cn3)n(C3CCC3)c2n1 [Cpd 142]"
  observed-value: "181 to 187 °C"
- compound: "Cc1cnc2c(C#N)c(-c3ccc(S(=O)(=O)N[C@@H](C)C(F)(F)F)cc3)n(C3CCC3)c2c1 [Cpd 216]"
  observed-value: "245 to 246 °C"
- compound: "CCn1c(-c2ccc(S(=O)(=O)N[C@@H](C)C(F)(F)F)cc2)c(C#N)c2cc(C)cnc21 [Cpd 484]"
  observed-value: "147 to 152 °C"
- compound: "Cc1cnc2c(C#N)c(-c3ccc(S(=O)(=O)NC(C)(C)C(F)(F)F)cn3)n(C3CCCC3)c2c1 [Cpd 173]"
  observed-value: "265 to 267 °C"

Hey, quick one: what's melting point for each of these?
1. N#Cc1c(-c2ccc(S(=O)(=O)NC(CF)CF)cn2)n(C2CCC2)c2cc(Cl)ncc12 [Cpd 97]
2. C[C@H](NS(=O)(=O)c1ccc(-c2c(C#N)c3cc(F)cnc3n2C2CCC2)nc1)C(F)(F)F [Cpd 169]
3. Cc1cnc2c(c1)c(C#N)c(-c1ccc(S(=O)(=O)NC3(C)CC3)cn1)n2C1CCCC1 [Cpd 256]

Result:
1. 215 to 216 °C
2. 172 to 174 °C
3. 143 to 153 °C

Hey, quick one: what's melting point for each of these?
1. Cc1cnc2c(C#N)c(-c3ccc(S(=O)(=O)N[C@@H](C)C(F)(F)F)cn3)n(-c3ccncn3)c2c1 [Cpd 481]
2. C[C@H](NS(=O)(=O)c1ccc(-c2c(C#N)c3ncc(Cl)cc3n2C2CCCCC2)cc1)C(F)(F)F [Cpd 287]
3. Cc1cnc2c(C#N)c(-c3ccc(S(=O)(=O)N[C@@H](C)C(F)(F)F)cn3)n(-c3cnccn3)c2c1 [Cpd 463]
4. Cc1cnc2c(c1)c(C#N)c(-c1ccc(S(=O)(=O)N[C@H](C)C(F)(F)F)cc1)n2C1CCCC1 [Cpd 262]

Result:
1. 265 to 267 °C
2. 300 to 305 °C
3. 288 to 289 °C
4. 189 to 195 °C

Hey, quick one: what's melting point for each of these?
1. C[C@@H](NS(=O)(=O)c1ccc(-c2c(C#N)c3cc(C(F)(F)F)cnc3n2C2CCC2)nc1)C(F)(F)F [Cpd 228]
2. Cc1cnc2c(c1)c(C#N)c(-c1ccc(S(=O)(=O)N[C@@H](C)C(F)(F)F)cn1)n2-c1nccs1 [Cpd 450]
3. N#Cc1c(-c2ccc(S(=O)(=O)NC(CF)CF)cn2)n(C2CCC2)c2ncc(F)cc12 [Cpd 12]
4. CC[C@H](NS(=O)(=O)c1ccc(-c2c(C#N)c3cc(Cl)cnc3n2C2CCC2)nc1)C(F)(F)F [Cpd 276]

Result:
["190 to 192 °C", "208 to 210 °C", "155 to 157 °C", "186 to 191 °C"]

Every entry's value here was drawn from patent US9593108B2.
